Sourced from the Immune Epitope Database (IEDB)

molecular target: HLA-A*69:01; assay: IEDB peptide-MHC binding, purified MHC/direct/fluorescence; filed as Kd, often an IC50 or EC50 that approximates it; bounds were set here for any values at or beyond the usual limits of such assays; settings: source organism: Salmonella enterica
pKd: −log10 of the molar value.
Readout: pKd

Sample `RKAGVNQAK` — what was its pKd?
≤ 4.70

###

target: HLA-B*15:01; experiment: IEDB peptide-MHC binding, purified MHC/competitive/fluorescence; filed as Kd, often an IC50 or EC50 that approximates it; bounds were set here for any values at or beyond the usual limits of such assays; conditions: source organism: Vaccinia virus WR
Readout: Kd (nM)
Numbers only, in nM.

Sample `FVHTLLKTY` — what was its Kd?
308
